- MEASURED_ON: human Protein Tyrosine Phosphatase Receptor Type M (PTPRM), PTPRM (gene 5797) (UniProt P28827)
- Sequence (P28827 whole entry, looked up): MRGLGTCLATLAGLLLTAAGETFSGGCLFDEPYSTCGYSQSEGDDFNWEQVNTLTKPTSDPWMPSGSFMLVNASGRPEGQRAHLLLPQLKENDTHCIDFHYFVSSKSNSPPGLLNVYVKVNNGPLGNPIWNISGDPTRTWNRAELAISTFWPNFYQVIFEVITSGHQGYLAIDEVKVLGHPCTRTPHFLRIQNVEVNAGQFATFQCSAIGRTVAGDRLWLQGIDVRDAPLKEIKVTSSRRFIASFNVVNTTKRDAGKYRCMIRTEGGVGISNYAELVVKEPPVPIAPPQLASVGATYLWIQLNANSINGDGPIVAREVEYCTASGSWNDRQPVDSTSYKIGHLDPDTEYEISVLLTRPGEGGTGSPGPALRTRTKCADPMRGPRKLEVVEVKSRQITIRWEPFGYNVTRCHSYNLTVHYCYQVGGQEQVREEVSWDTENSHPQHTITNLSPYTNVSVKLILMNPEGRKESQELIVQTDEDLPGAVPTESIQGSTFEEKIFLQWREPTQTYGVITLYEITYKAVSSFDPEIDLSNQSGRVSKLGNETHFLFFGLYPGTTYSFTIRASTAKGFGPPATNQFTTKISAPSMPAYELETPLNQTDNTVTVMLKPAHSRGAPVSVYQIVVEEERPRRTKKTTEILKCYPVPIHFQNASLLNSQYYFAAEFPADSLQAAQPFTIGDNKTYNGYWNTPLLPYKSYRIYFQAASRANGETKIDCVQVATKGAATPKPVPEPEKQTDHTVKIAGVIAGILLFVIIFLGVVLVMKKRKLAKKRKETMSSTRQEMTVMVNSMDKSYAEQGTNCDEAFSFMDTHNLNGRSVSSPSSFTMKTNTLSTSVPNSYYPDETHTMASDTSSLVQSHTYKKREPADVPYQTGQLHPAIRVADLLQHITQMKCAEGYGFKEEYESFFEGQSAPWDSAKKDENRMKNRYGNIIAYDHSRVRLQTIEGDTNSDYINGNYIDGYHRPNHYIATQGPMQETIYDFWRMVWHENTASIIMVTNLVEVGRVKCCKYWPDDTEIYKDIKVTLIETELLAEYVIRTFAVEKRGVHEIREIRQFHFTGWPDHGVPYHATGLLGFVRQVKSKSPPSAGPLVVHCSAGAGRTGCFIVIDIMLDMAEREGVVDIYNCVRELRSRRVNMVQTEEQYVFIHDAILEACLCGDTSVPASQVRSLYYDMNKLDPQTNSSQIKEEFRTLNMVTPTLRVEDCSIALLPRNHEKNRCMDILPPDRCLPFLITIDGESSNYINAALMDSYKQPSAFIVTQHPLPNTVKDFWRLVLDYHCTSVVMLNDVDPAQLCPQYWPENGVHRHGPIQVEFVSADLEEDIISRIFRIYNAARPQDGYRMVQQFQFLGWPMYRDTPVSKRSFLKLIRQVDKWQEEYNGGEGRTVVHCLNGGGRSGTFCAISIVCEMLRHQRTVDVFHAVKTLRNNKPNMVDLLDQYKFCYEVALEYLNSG
- ASSAY_OVERVIEW: NVS_ENZ_hPTPRM: NovaScreen (NVS) Enzymatic Assay for human Protein Tyrosine Phosphatase Receptor Type M (PTPRM) (AID 2283215)
Records with an inconclusive call do not appear. The source made the active and inactive calls. Rule for the calls: active = hit-call score of the fitted dose curve at least 0.9, where 1 is the maximum; inconclusive = response in the unintended direction; inactive = score below 0.9.
METRIC: AC50

[[record]]
molecule = "CCN(CC)N=O"
metric = "AC50"
observed_measurement = "inactive"

[[record]]
molecule = "O=C(Oc1ccc(Br)cc1)N1CCN2CCC1CC2"
metric = "AC50"
observed_measurement = "inactive"

[[record]]
molecule = "CCCSC(=O)N(CCC)CCC"
metric = "AC50"
observed_measurement = "inactive"

[[record]]
molecule = "OCCCBr"
metric = "AC50"
observed_measurement = "13 µM (active)"

[[record]]
molecule = "O=C(O)C1C2CCC(O2)C1C(=O)O (stereo not given)"
metric = "AC50"
observed_measurement = "inactive"


----------
- Read-out: Cytochrome P450 3A4 (Homo sapiens)
- ASSAY_OVERVIEW: LTEA_HepaRG_CYP3A4: Life Technologies and Expression Analysis (LTEA) Assay for CYP3A4 using HepaRG (AID 2283487)
- STATED_CONDITIONS: mRNA level, 48 h; actives raise or lower the signal
The source made the active and inactive calls. The calls were made as follows: active = hit-call score of the fitted dose curve at least 0.9, where 1 is the maximum; inactive = score below 0.9.
Outcome codes: active, inactive

[[record]]
compound = "COc1cc(C=O)cc2c1[C@H](COC(N)=O)[C@]1(OC(C)=O)ON2C[C@H]2[C@@H]1N2C(C)=O"
answer_label = "inactive"

[[record]]
compound = "CCCCC(CC)COC(=O)c1ccc(C(=O)OCC(CC)CCCC)c(C(=O)OCC(CC)CCCC)c1 (stereo unspecified)"
answer_label = "inactive"

[[record]]
compound = "O=C(Oc1ccc(Br)cc1)N1CCN2CCC1CC2"
answer_label = "active"

[[record]]
compound = "Cc1ccc(N)cc1"
answer_label = "inactive"

[[record]]
compound = "CN(C)c1ccccc1"
answer_label = "inactive"

[[record]]
compound = "Nc1ccc(Cl)cc1N"
answer_label = "active"


----------
- ASSAY_OVERVIEW: ATG_M_06_XSP2: Attagene TRANS-FACTORIAL Multi-Species (XSP2) HepG2 Assay for M06 Transcription Factor (Internal Marker) (AID 2283811);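 note: internal background marker reporter mRNA measured by RT-PCR and capillary electrophoresis; hits are increases in signal above the DMSO baseline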
Inconclusive results are not listed. Activity calls are given as the source filed them. The calls were made as follows: active = hit-call score of the fitted dose curve at least 0.9, where 1 is the maximum; inconclusive = response in the unintended direction; inactive = score below 0.9.
METRIC: outcome

[[record]]
compound = "CCC(C)c1ccc(O)cc1 (stereo not given)"
metric = "outcome"
observed_measurement = "inactive"

[[record]]
compound = "CCCCOC(=O)c1ccccc1C(=O)OCc1ccccc1"
metric = "outcome"
observed_measurement = "inactive"

[[record]]
compound = "CCC[CH2][Sn]([Cl])([CH2]CCC)[CH2]CCC"
metric = "outcome"
observed_measurement = "inactive"

[[record]]
compound = "CC(C)(C)C(O)(CCc1ccc(Cl)cc1)Cn1cncn1 (stereo not given)"
metric = "outcome"
observed_measurement = "inactive"

[[record]]
compound = "Clc1ccc(C(c2ccc(Cl)cc2)C(Cl)Cl)cc1"
metric = "outcome"
observed_measurement = "inactive"


----------
- Read-out: DNA damage-inducible transcript 3 (DDIT3), DDIT3 (gene 1649)
- ASSAY_OVERVIEW: LTEA_HepaRG_DDIT3: Life Technologies and Expression Analysis (LTEA) Assay for DNA damage-inducible transcript 3 (DDIT3) using HepaRG (AID 2283488)
- STATED_CONDITIONS: mRNA level, 48 h; actives raise or lower the signal
Calls of active or inactive are those of the source. How the source made its calls: active means hit-call score of the fitted dose curve at least 0.9, where 1 is the maximum; inactive means score below 0.9.
METRIC: AC50

[[record]]
compound = "Cc1cc(N=Nc2ccccc2C)ccc1N"
observed_measurement = "inactive"

[[record]]
compound = "CN(C)c1ccc(C(=O)c2ccc(N(C)C)cc2)cc1"
observed_measurement = "inactive"

[[record]]
compound = "CNC(=O)Oc1cccc2c1OC(C)(C)C2"
observed_measurement = "inactive"

[[record]]
compound = "[Cl-].[Cl-].[Hg+2]"
observed_measurement = "inactive"

[[record]]
compound = "CCCCCCCCn1sccc1=O"
observed_measurement = "inactive"

[[record]]
compound = "Nc1ccc(Cl)cc1N"
observed_measurement = "50 µM (active)"

[[record]]
compound = "N#CC(Br)Br"
observed_measurement = "inactive"

[[record]]
compound = "C=CCc1ccc2c(c1)OCO2"
observed_measurement = "inactive"

[[record]]
compound = "Brc1ccc(Oc2ccccc2)cc1"
observed_measurement = "inactive"

[[record]]
compound = "CCC[CH2][Sn]([Cl])([CH2]CCC)[CH2]CCC"
observed_measurement = "2.28 µM (active)"

[[record]]
compound = "CCC(C)c1ccc(O)cc1 (stereo unspecified)"
observed_measurement = "inactive"

[[record]]
compound = "C[N+](C)(C)CC1CO1 (stereo unspecified)"
observed_measurement = "inactive"

[[record]]
compound = "O=C(O)C1C2CCC(O2)C1C(=O)O (stereo unspecified)"
observed_measurement = "50 µM (active)"

[[record]]
compound = "CCC12COCN1COC2"
observed_measurement = "inactive"

[[record]]
compound = "COC(=O)Nc1nc2ccccc2[nH]1"
observed_measurement = "inactive"

[[record]]
compound = "CCN(CC)CCO"
observed_measurement = "inactive"


----------
- Read-out: Tissue Factor, F3 (gene 2152)
- ASSAY_OVERVIEW: BSK_CASM3C_TissueFactor: BioMAP Diversity Plus: CASM3C Assay for Tissue Factor Biomarker Activity (AID 2283052);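 note: cell surface tissue factor protein level read by ELISA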
- STATED_CONDITIONS: primary human coronary artery smooth muscle cells; actives raise or lower the signal
Activity calls are given as the source filed them. The calls were made as follows: active = hit-call score of the fitted dose curve at least 0.9, where 1 is the maximum; inactive = score below 0.9.
Outcome codes: 1 = active, -1 = inactive

[[record]]
molecule = "CCCCC(CC)COC(=O)c1ccc(C(=O)OCC(CC)CCCC)c(C(=O)OCC(CC)CCCC)c1 (configuration not stated)"
answer_label = -1

[[record]]
molecule = "C[N+](C)(C)CC1CO1 (configuration not stated)"
answer_label = -1

[[record]]
molecule = "Nc1ccc(Oc2ccc(N)cc2)cc1"
answer_label = -1

[[record]]
molecule = "CCCCCCCCn1sccc1=O"
answer_label = 1

[[record]]
molecule = "Nc1cc(Cl)cc(C(=O)O)c1Cl"
answer_label = -1

[[record]]
molecule = "OCCCl"
answer_label = -1

[[record]]
molecule = "Clc1ccc(C(c2ccc(Cl)cc2)C(Cl)Cl)cc1"
answer_label = 1


----------
- ASSAY_OVERVIEW: CCTE_Shafer_MEA_acute_spike_number: CCTE's Neural Acute Assay for Total Number of Spikes, Shafer Lab (AID 2284008)
Active and inactive are the calls of the source. Rule for the calls: active = hit-call score of the fitted dose curve at least 0.9, where 1 is the maximum; inactive = score below 0.9.
Outcome codes: label 1 for active, label 0 for inactive

[[record]]
molecule = "CC(C)(C)C(O)(CCc1ccc(Cl)cc1)Cn1cncn1 (stereo not drawn)"
answer_label = "label 1"

[[record]]
molecule = "CCCCOC(=O)c1ccccc1C(=O)OCc1ccccc1"
answer_label = "label 1"

[[record]]
molecule = "c1ccc(N=Nc2ccccc2)cc1"
answer_label = "label 0"

[[record]]
molecule = "O=Cc1ccco1"
answer_label = "label 0"

[[record]]
molecule = "CCC(C)c1ccc(O)cc1 (stereo not drawn)"
answer_label = "label 1"

[[record]]
molecule = "O=[N+]([O-])C(Br)(CO)CO"
answer_label = "label 1"

[[record]]
molecule = "COC(=O)Nc1nc2ccccc2[nH]1"
answer_label = "label 0"

[[record]]
molecule = "Cc1ccc(N)c(N)c1"
answer_label = "label 0"


----------
- Read-out: Apolipoprotein A-V (APOA5) gene, APOA5 (gene 116519)
- ASSAY_OVERVIEW: LTEA_HepaRG_APOA5: Life Technologies and Expression Analysis (LTEA) Assay for Apolipoprotein A-V (APOA5) gene using HepaRG (AID 2283474)
- STATED_CONDITIONS: mRNA level, 48 h; actives raise or lower the signal
Activity calls are given as the source filed them. The calls were made as follows: active = hit-call score of the fitted dose curve at least 0.9, where 1 is the maximum; inactive = score below 0.9.
Outcome codes: class 1 = active, class 0 = inactive

[[record]]
molecule = "Nc1ccc([N+](=O)[O-])cc1"
answer_label = "class 0"

[[record]]
molecule = "COC(=O)Nc1nc2ccccc2[nH]1"
answer_label = "class 0"

[[record]]
molecule = "CN(C)c1ccccc1"
answer_label = "class 0"

[[record]]
molecule = "CCC[CH2][Sn]([Cl])([CH2]CCC)[CH2]CCC"
answer_label = "class 1"

[[record]]
molecule = "O=P(OCCCl)(OCCCl)OCCCl"
answer_label = "class 0"

[[record]]
molecule = "CO[C@@H]1[C@H](OC(=O)NC(=O)CCl)CC[C@]2(CO2)[C@H]1[C@@]1(C)O[C@@H]1CC=C(C)C"
answer_label = "class 0"

[[record]]
molecule = "Clc1ccc(C(c2ccc(Cl)cc2)C(Cl)(Cl)Cl)cc1"
answer_label = "class 1"

[[record]]
molecule = "C[N+](C)(C)CC1CO1 (stereo not given)"
answer_label = "class 0"

[[record]]
molecule = "Nc1ccc(N=Nc2ccccc2)cc1"
answer_label = "class 1"

[[record]]
molecule = "CCCSC(=O)N(CCC)CCC"
answer_label = "class 0"

[[record]]
molecule = "Oc1ccccc1Cl"
answer_label = "class 0"

[[record]]
molecule = "OCCOCCO"
answer_label = "class 0"

[[record]]
molecule = "CCC12COCN1COC2"
answer_label = "class 0"

[[record]]
molecule = "ClC1=C(Cl)C2(Cl)C3C(Cl)C=CC3C1(Cl)C2(Cl)Cl (stereo not given)"
answer_label = "class 0"

[[record]]
molecule = "CCN(CC)N=O"
answer_label = "class 0"

